target_under_test: recombinant human plasminogen activator inhibitor-1 (PAI-1) (Homo sapiens, UniProt P05121)
Construct: purchased Molecular Innovations, Royal Oak, Mich
Sequence (P05121 24-402): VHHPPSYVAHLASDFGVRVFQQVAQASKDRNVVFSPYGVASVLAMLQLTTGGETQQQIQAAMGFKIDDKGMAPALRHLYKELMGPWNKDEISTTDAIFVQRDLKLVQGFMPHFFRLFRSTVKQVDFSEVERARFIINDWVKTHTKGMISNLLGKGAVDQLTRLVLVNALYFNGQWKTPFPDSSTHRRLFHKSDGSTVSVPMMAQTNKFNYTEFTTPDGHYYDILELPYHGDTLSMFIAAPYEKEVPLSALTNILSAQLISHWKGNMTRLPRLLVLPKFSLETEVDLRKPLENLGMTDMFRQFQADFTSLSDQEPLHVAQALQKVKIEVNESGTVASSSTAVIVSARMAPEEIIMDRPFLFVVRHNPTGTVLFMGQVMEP
experiment: Primary screen for the PAI-1 inhibition (chromogenic tPA activity, Spectrozyme-tPA)
Assay type: biochemical
conditions: compound at 100 μM
recorded_endpoint: inhibition at 100 µM (%)

(P) O=c1[nH]c(=O)n(Cc2ccc(OCc3ccc(C(F)(F)F)cc3)c(OCc3ccc(C(F)(F)F)cc3)c2)o1 [Compound 86]
(Q) CCn1cc(Cn2oc(=O)[nH]c2=O)c2cc(OCc3cc(C(F)(F)F)cc(C(F)(F)F)c3)ccc21 [Compound 6]
Exercise: compare P and Q ; which one has the greater inhibition at 100 µM? Could you answer with the label of the item you picked? P

---

target_under_test: recombinant human plasminogen activator inhibitor-1 (PAI-1) (Homo sapiens)
Construct: purchased Molecular Innovations, Royal Oak, Mich
experiment: Primary screen for the PAI-1 inhibition (chromogenic tPA activity, Spectrozyme-tPA)
Format: biochemical
conditions: compound at 100 μM
recorded_endpoint: inhibition at 100 µM (%)

Field: example entries. Status: answers known.
INSERT INTO measurements (cpd_smiles, recorded_endpoint, value_reported) VALUES
  ('C=CCn1cc(Cn2oc(=O)[nH]c2=O)c2cc(OCc3ccc4ccccc4c3)ccc21', 'inhibition at 100 µM', 98),
  ('O=c1[nH]c(=O)n(Cc2ccc(-c3ccc(OCc4cccc(Br)c4)cc3)cc2)o1', 'inhibition at 100 µM', 41),
  ('O=c1[nH]c(=O)n(Cc2cccc(-c3cccc(OCc4c(Cl)cccc4Cl)c3)c2)o1', 'inhibition at 100 µM', 88);

(I) C=CCn1cc(Cn2oc(=O)[nH]c2=O)c2cc(OCc3ccccc3Cl)ccc21
(II) O=c1[nH]c(=O)n(Cc2ccc(-c3cccc(OCc4ccc(Br)cc4)c3)cc2)o1
(III) O=c1[nH]c(=O)n(Cc2cccc(-c3cccc(OCc4ccc5ccccc5c4)c3)c2)o1
(IV) C#CCn1cc(Cn2oc(=O)[nH]c2=O)c2cc(OCc3cccc(Cl)c3)ccc21
Rank ascending by inhibition at 100 µM. Return the labels ranked in the requested order, please. II, III, IV, I
(II: 10%, III: 28%, IV: 48%, I: 91%)

---

target_under_test: recombinant human plasminogen activator inhibitor-1 (PAI-1) (Homo sapiens)
Construct: purchased Molecular Innovations, Royal Oak, Mich
experiment: Primary screen for the PAI-1 inhibition (chromogenic tPA activity, Spectrozyme-tPA)
Assay type: biochemical
conditions: compound at 100 μM
recorded_endpoint: inhibition at 100 µM (%)

# count of solved cases: 4
INSERT INTO measurements (cpd_smiles, recorded_endpoint, value_reported) VALUES
  ('C#CCn1cc(Cn2oc(=O)[nH]c2=O)c2cc(OCc3ccc(Br)cc3)ccc21', 'inhibition at 100 µM', 68),
  ('Cc1cccc(COc2cc(Cn3oc(=O)[nH]c3=O)cc(OCc3cccc(C)c3)c2)c1', 'inhibition at 100 µM', 81),
  ('C=CCn1cc(Cn2oc(=O)[nH]c2=O)c2cc(OCc3ccc(Cl)c(Cl)c3)ccc21', 'inhibition at 100 µM', 87),
  ('O=c1[nH]c(=O)n(Cc2cc(OCc3ccc(C(F)(F)F)cc3)cc(OCc3ccc(C(F)(F)F)cc3)c2)o1', 'inhibition at 100 µM', 87);

(P) CCCCC#Cc1ccc(Cn2oc(=O)[nH]c2=O)cc1
(Q) O=c1[nH]c(=O)n(Cc2ccc(C#CCOc3cc(Cl)cc(Cl)c3)cc2)o1
Input pair: P , Q . Output: entry with lower inhibition at 100 µM. Pick one and reply with its label. P
